# Test system: A. xylosoxidans 37F
# procedure-details: Antimicrobial microdilution assay (MIC/MBC)
# Format: cell-based, Achromobacter xylosoxidans
# assay-context: Achromobacter xylosoxidans, 37F; 37 °C, 24 h; read-out: MIC
result-type: MIC (µg/mL)

[[record]]
smiles_repr = "O=C(O)/C=C/c1ccc(O)cc1"
target_or_system = "A. xylosoxidans 37F"
result_type = "MIC"
units_text = "µg/mL"
lt_gt_eq = "="
numeric_readout = 1000

[[record]]
smiles_repr = "O=C(O)c1cc(O)c(O)c(O)c1"
target_or_system = "A. xylosoxidans 37F"
result_type = "MIC"
units_text = "µg/mL"
lt_gt_eq = "="
numeric_readout = 500

[[record]]
smiles_repr = "O=c1c(O[C@@H]2O[C@H](CO)[C@@H](O)[C@H](O)[C@H]2O)c(-c2ccc(O)c(O)c2)oc2cc(O)cc(O)c12"
target_or_system = "A. xylosoxidans 37F"
result_type = "MIC"
units_text = "µg/mL"
lt_gt_eq = "="
numeric_readout = 500

[[record]]
smiles_repr = "C[C@@H]1O[C@@H](O[C@H]2[C@H](Oc3cc(O)c4c(c3)O[C@H](c3ccc(O)cc3)CC4=O)O[C@H](CO)[C@@H](O)[C@@H]2O)[C@H](O)[C@H](O)[C@H]1O"
target_or_system = "A. xylosoxidans 37F"
result_type = "MIC"
units_text = "µg/mL"
lt_gt_eq = ">"
numeric_readout = 1000

